Value source: the supplement of paper PMC13380429

# System: Caco-2
# assay name: cell viability relative to DMSO; higher = less toxic
# conditions: 72 h; 100 nM
measurement type: cell viability (%)
Report the figure in % without appending any unit label.

Known results for molecules:
CN(CC[C@@H](Oc1ccc(-c2ccccc2)cc1)c1ccc(F)cc1)CC(=O)O | 102
Cc1nc(C)c(-c2ccc(C3CCC(CC(=O)O)CC3)cc2)nc1C(N)=O (centres undefined) | 97.7
CC(C)OC(=O)OCOP(=O)(CO[C@H](C)Cn1cnc2c(N)ncnc21)OCOC(=O)OC(C)C | 93.8
O=C1c2c(O)ccc(O)c2C(=O)c2c(NCCNCCO)ccc(NCCNCCO)c21 | 86.2
Cc1cccc(Cc2c[nH]cn2)c1C | 97.5
Cc1cc(C(=O)O)sc1C(N)C(=O)O (centres undefined) | 97.3
COc1ccc2[nH]cc(C3=CCNCC3)c2c1 | 99.6
C[C@]12CC[C@@H](O)C[C@@H]1CC[C@@H]1[C@@H]2CC[C@]2(C)C(c3ccccc3)=CC[C@@H]12 | 87.5

Problem: Please report the recorded cell viability for Cc1ccc2cc(-c3c(C)ccc(C(=O)c4c(-c5ccccc5)n(C)n(-c5ccccc5)c4=O)c3N)ccc2n1 .
Result: 75.3

Problem: Please report the recorded cell viability for CC(=O)C(=Cc1cc(O)c(O)c([N+](=O)[O-])c1)C(C)=O .
Result: 99.9

Problem: Please report the recorded cell viability for CC(=O)NC[C@H]1CN(c2ccc(-c3ccc(CNCc4cnn[nH]4)cc3)c(F)c2)C(=O)O1 .
Result: 104

Problem: Please report the recorded cell viability for COc1ccc(C2(O)CCC(N3CC[C@@H](NC(=O)CNC(=O)c4cccc(C(F)(F)F)c4)C3)CC2)cn1 (some centres undefined) .
Result: 95.3

Problem: Please report the recorded cell viability for c1ccc2c(c1)CCCC2C1=NCCN1 (centres undefined) [tetrahydrozoline] .
Result: 99

Problem: Please report the recorded cell viability for CCN(CC)C(=O)N[C@H]1C=C2c3cccc4[nH]cc(c34)C[C@H]2N(C)C1 [lisuride] .
Result: 101

---

# System: HepG2
# assay name: cell viability relative to DMSO; higher = less toxic
# conditions: 72 h; 100 nM
measurement type: cell viability (%)
Report the figure in % without appending any unit label.

CC(C)[C@H](N)C(=O)OCCOCn1cnc2c(=O)nc(N)[nH]c21 | 104
Cc1ncc([N+](=O)[O-])n1CC(O)CCl (centres undefined) | 91.6
C[C@@H](N[C@H]1CCCC[C@@H]1NC(=O)c1ccc(Cl)cc1)c1cccc2ccccc12 | 95.7

Proceed to the following item.
Problem: Please report the recorded cell viability for O=C1CC(=O)c2c(Cl)c(Cl)c(Cl)c(Cl)c21 .
Result: 104

---

# System: HepG2
# assay name: cell viability relative to DMSO; higher = less toxic
# conditions: 72 h; 100 nM
// cell viability lookup, one value per entry
Report the figure in % without appending any unit label.

Known results for compounds:
CCOC(=O)Nc1ccc2c(c1)N(C(=O)CN(CC)CC)c1ccccc1CC2 | 99.1
NC(=O)c1cccnc1 [nicotinamide] | 101
O=C(c1cncc(Br)c1)N1CCC(N2CCCC2)CC1 | 103

Problem: Please report the recorded cell viability for CNC(=O)c1ccc(-c2cnc3ncc(Cc4ccc5ncccc5c4)n3n2)cc1F .
Result: 88.8

Problem: Please report the recorded cell viability for CCc1cc2c(s1)-n1c(C)nnc1CN=C2c1ccccc1Cl .
Result: 106

Problem: Please report the recorded cell viability for Cc1nc(C)c(-c2ccc(C3CCC(CC(=O)O)CC3)cc2)nc1C(N)=O (stereo not given) .
Result: 109

Problem: Please report the recorded cell viability for C[S+]([O-])c1ccc(-c2nc(-c3ccc(F)cc3)c(-c3ccncc3)[nH]2)cc1 (stereo not given) .
Result: 96.1

Problem: Please report the recorded cell viability for CC(C)N(CCC(=O)c1ccc2ccccc2c1)Cc1ccccc1 .
Result: 99

Problem: Please report the recorded cell viability for O=C(NNc1ccccc1)c1ccncc1 .
Result: 104

Problem: Please report the recorded cell viability for NC(=O)c1ccc([N+](=O)[O-])cc1Cl [aklomide] .
Result: 100

Problem: Please report the recorded cell viability for CN1C2CCC1CC(OC(c1ccccc1)c1ccc(Cl)cc1)C2 (stereo not given) .
Result: 97.6

Problem: Please report the recorded cell viability for Nc1nc(OCC2CCCCC2)c2nc[nH]c2n1 .
Result: 98.3
